Experiment: Plasma pharmacokinetics
Format: in vivo, male BALB/c mice
Details: male, BALB/c, mouse, in vivo, iv
Numbered stars: 1 amine (or outer) side, 2 acyl side, 3 side chain; on linkers, the order of the positions; unused ones are H or OH. Bridge positions count the residues as written; N and C are the ends. Square brackets hold non-standard residues; d marks the D form. Peptide text beside a SMILES is read from it. * marks the point of attachment. Piperazine(2S-CO,4-Me) = CN1CCN[C@H](C(=O)O)C1; Phe(3-Me) = Cc1cccc(C[C@H](N)C(=O)O)c1; NH(4-Cl-2-F-phenyl) = Fc1cc(Cl)ccc1N*; Pro(4R-Me) = C[C@H]1CN[C@H](C(=O)O)C1; X1 = O=C([C@@H]1CSCCN1[*:1])[*:2]; aThr = C[C@H](O)[C@H](N)C(=O)O; Pip = O=C(O)[C@@H]1CCCCN1; CO = O=C([*:1])[*:2]
clearance values for the compounds below.
Give just the number in mL/min/kg; leave the unit off.

Worked set:
• Cc1cccc(C[C@H](NC(=O)Nc2ccc(Cl)cc2F)C(=O)N[C@@H]2C(=O)N3CCC[C@H]3C(=O)N3CCN(C)C[C@H]3C(=O)N[C@@H](C)C(=O)N3C[C@H](C)C[C@H]3C(=O)O[C@H]2C)c1 [Compound 11] ({NH(4-Cl-2-F-phenyl)-CO}-[Phe(3-Me)][aThr]P[Piperazine(2S-CO,4-Me)]A[Pro(4R-Me)]; ester 2-C) = 33.1
• Cc1cccc(C[C@H](NC(=O)Nc2ccc(Cl)cc2F)C(=O)N[C@@H]2C(=O)N3CCC[C@H]3C(=O)N3CCSC[C@H]3C(=O)N[C@@H](C)C(=O)N3C[C@H](C)C[C@H]3C(=O)O[C@H]2C)c1 [Compound 38] ({NH(4-Cl-2-F-phenyl)-CO}-[Phe(3-Me)][aThr]P[X1]A[Pro(4R-Me)]; ester 2-C) = 12.6

// next entry
# input # lookup: clearance of Cc1cccc(C[C@H](NC(=O)Nc2ccc(Cl)cc2F)C(=O)N[C@@H]2C(=O)N3CCC[C@H]3C(=O)N3CCCC[C@H]3C(=O)N[C@@H](C)C(=O)N3C[C@H](C)C[C@H]3C(=O)O[C@H]2C)c1 [Compound 3] ({NH(4-Cl-2-F-phenyl)-CO}-[Phe(3-Me)][aThr]P[Pip]A[Pro(4R-Me)]; ester 2-C)
# output 13.3
